Source of measurements: the RNAGym collection of RNA variant scans (doi:10.7554/elife.80360)

B1: CPEB3 Ribozyme (parent)
chain: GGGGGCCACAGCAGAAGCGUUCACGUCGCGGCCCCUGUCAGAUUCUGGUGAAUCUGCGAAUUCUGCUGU

# Variants of: B1
# assay details: self-cleavage, relative activity (ratio to wild type); higher = more cleavage; co-transcriptional
Values of self-cleavage greater than or equal to 0.2 map to condition met; values below map to condition not met.

>  <mutation annotation>
C7A C32U

>  <discrete label>
condition met

$$$$
>  <mutation annotation>
G25U C27G

>  <discrete label>
condition not met

$$$$
>  <mutation annotation>
A42U G65A

>  <discrete label>
condition met

$$$$
>  <mutation annotation>
C54G A60G

>  <discrete label>
condition met

$$$$
>  <mutation annotation>
G5C G41U

>  <discrete label>
condition not met

$$$$
>  <mutation annotation>
A16G U69A

>  <discrete label>
condition met

$$$$
>  <mutation annotation>
A23C U55C

>  <discrete label>
condition met

$$$$
>  <mutation annotation>
A15U U64C

>  <discrete label>
condition met

$$$$
>  <mutation annotation>
G11C G47A

>  <discrete label>
condition met

$$$$
>  <mutation annotation>
C6G G68U

>  <discrete label>
condition met

$$$$
>  <mutation annotation>
C54U G56C

>  <discrete label>
condition met

$$$$
>  <mutation annotation>
U36A U38C

>  <discrete label>
condition met

$$$$
>  <mutation annotation>
C12A C34G

>  <discrete label>
condition met

$$$$
>  <mutation annotation>
U43A A60U

>  <discrete label>
condition met

$$$$
>  <mutation annotation>
C22U G50U

>  <discrete label>
condition met

$$$$
>  <mutation annotation>
C22G C45A

>  <discrete label>
condition met

$$$$
>  <mutation annotation>
C34G U64G

>  <discrete label>
condition met

$$$$
>  <mutation annotation>
C6U U69A

>  <discrete label>
condition met

$$$$
>  <mutation annotation>
G11U A13C

>  <discrete label>
condition not met

$$$$
>  <mutation annotation>
G3C A40U

>  <discrete label>
condition not met

$$$$
>  <mutation annotation>
C32G U46A

>  <discrete label>
condition met

$$$$
>  <mutation annotation>
C6U G37U

>  <discrete label>
condition not met

$$$$
>  <mutation annotation>
A59U U67C

>  <discrete label>
condition met

$$$$
>  <mutation annotation>
C24U U36G

>  <discrete label>
condition not met

$$$$
>  <mutation annotation>
G1C C32U

>  <discrete label>
condition met

$$$$
>  <mutation annotation>
U21C C63A

>  <discrete label>
condition met

$$$$
>  <mutation annotation>
C18U A52U

>  <discrete label>
condition met

$$$$
>  <mutation annotation>
C6G G50A

>  <discrete label>
condition met

$$$$
>  <mutation annotation>
C39U A59G

>  <discrete label>
condition met

$$$$
>  <mutation annotation>
C7A C34A

>  <discrete label>
condition not met

$$$$
>  <mutation annotation>
C6G U26A

>  <discrete label>
condition not met

$$$$
>  <mutation annotation>
G4C G28U

>  <discrete label>
condition not met

$$$$
>  <mutation annotation>
U38C U49C

>  <discrete label>
condition met

$$$$
>  <mutation annotation>
A15G G41U

>  <discrete label>
condition met

$$$$
>  <mutation annotation>
A42G U49C

>  <discrete label>
condition met

$$$$
>  <mutation annotation>
C57U G68U

>  <discrete label>
condition met

$$$$
>  <mutation annotation>
A15U U46C

>  <discrete label>
condition met

$$$$
>  <mutation annotation>
G25C A42C

>  <discrete label>
condition not met

$$$$
>  <mutation annotation>
A8G G25U

>  <discrete label>
condition not met

$$$$
